Where these numbers come from: ChEMBL document CHEMBL3596178

Test system: Mus musculus
ASSAY_OVERVIEW: Anti-inflammatory activity in BALB/c mouse assessed as reduction in TPA-induced ear edema by measuring weight of ear punches at 0.75 uM applied topically 6 mins before to TPA treatment
Type: functional
TEST_READOUT: inhibition (INH)

Below are worked cases with known answers.
COMPOUND	inhibition (INH)
COc1cc(/C=C/C(=O)CC(=O)/C=C/c2ccc(OC(=O)c3ccccc3Nc3cccc(C(F)(F)F)c3)c(OC)c2)ccc1O	90%
COc1cc(/C=C/C(=O)CC(=O)/C=C/c2ccc(OC(=O)CCc3nc(-c4ccccc4)c(-c4ccccc4)o3)c(OC)c2)ccc1O	75%
COc1cc(/C=C/C(=O)CC(=O)/C=C/c2ccc(OC(=O)c3ccccc3Nc3cccc(C)c3C)c(OC)c2)ccc1O	78%
COc1cc(/C=C/C(=O)CC(=O)/C=C/c2ccc(OC(=O)c3ccccc3OC(C)=O)c(OC)c2)ccc1OC(=O)c1ccccc1OC(C)=O	87.8%

Turning to the following compound.
The compound identified as COc1ccc2c(c1)c(CC(=O)Oc1ccc(/C=C/C(=O)CC(=O)/C=C/c3ccc(OC(=O)Cc4c(C)n(C(=O)c5ccc(Cl)cc5)c5ccc(OC)cc45)c(OC)c3)cc1OC)c(C)n2C(=O)c1ccc(Cl)cc1 registered its inhibition (INH) at 10%

* * *

Test system: Mus musculus
ASSAY_OVERVIEW: Anti-inflammatory activity in BALB/c mouse assessed as reduction in TPA-induced ear edema by measuring weight of ear punches at 0.75 uM applied topically 6 mins before to TPA treatment
Assay type: functional
TEST_READOUT: inhibition (INH) (%)
Kindly provide the numeric value in % only, without the unit symbol.

MOLECULE	MEASURED_ON	UNIT_INFO	inhibition (INH)
COc1cc(/C=C/C(=O)CC(=O)/C=C/c2ccc(OC(=O)c3ccccc3OC(C)=O)c(OC)c2)ccc1O	Mus musculus	%	10

The molecule identified as COc1cc(/C=C/C(=O)CC(=O)/C=C/c2ccc(OC(=O)c3cc(-c4ccc(F)cc4F)ccc3O)c(OC)c2)ccc1O registered its inhibition (INH) at 10

The molecule identified as COc1cc(/C=C/C(=O)CC(=O)/C=C/c2ccc(OC(=O)C(C)c3ccc(CC(C)C)cc3)c(OC)c2)ccc1O (stereo not given) registered its inhibition (INH) at 91.8

The molecule identified as COc1cc(/C=C/C(=O)CC(=O)/C=C/c2ccc(OC(=O)c3ccccc3O)c(OC)c2)ccc1O registered its inhibition (INH) at 91.8

The molecule identified as COc1cc(/C=C/C(=O)CC(=O)/C=C/c2ccc(OC(=O)Cc3ccccc3Nc3c(Cl)cccc3Cl)c(OC)c2)ccc1OC(=O)Cc1ccccc1Nc1c(Cl)cccc1Cl registered its inhibition (INH) at 10

The molecule identified as COc1cc(/C=C/C(=O)CC(=O)/C=C/c2ccc(OC(=O)C(C)c3cccc(C(=O)c4ccccc4)c3)c(OC)c2)ccc1OC(=O)C(C)c1cccc(C(=O)c2ccccc2)c1 (stereo not given) registered its inhibition (INH) at 10

* * *

Attribute: inhibition (INH)
System: Mus musculus
ASSAY_OVERVIEW: Anti-inflammatory activity in BALB/c mouse assessed as reduction in TPA-induced ear edema by measuring weight of ear punches at 0.75 uM applied topically 6 mins before to TPA treatment
Format: functional
Write the quantity with the unit trailing the number.

COMPOUND	MEASURED_ON	inhibition (INH)
COc1cc(/C=C/C(=O)CC(=O)/C=C/c2ccc(OC(=O)c3cc(-c4ccc(F)cc4F)ccc3O)c(OC)c2)ccc1OC(=O)c1cc(-c2ccc(F)cc2F)ccc1O	Mus musculus	85%
COc1cc(/C=C/C(=O)CC(=O)/C=C/c2ccc(OC(=O)c3ccccc3Nc3cccc(C)c3C)c(OC)c2)ccc1OC(=O)c1ccccc1Nc1cccc(C)c1C	Mus musculus	10%

The compound identified as COc1cc(/C=C/C(=O)CC(=O)/C=C/c2ccc(OC(=O)C(C)c3cccc(C(=O)c4ccccc4)c3)c(OC)c2)ccc1O (centres undefined) registered its inhibition (INH) at 68.8%

The compound identified as COc1cc(/C=C/C(=O)CC(=O)/C=C/c2ccc(OC(=O)CCc3nc(-c4ccccc4)c(-c4ccccc4)o3)c(OC)c2)ccc1OC(=O)CCc1nc(-c2ccccc2)c(-c2ccccc2)o1 registered its inhibition (INH) at 10%

The compound identified as COc1cc(/C=C/C(=O)CC(=O)/C=C/c2ccc(OC(=O)c3ccccc3Nc3cccc(C(F)(F)F)c3)c(OC)c2)ccc1OC(=O)c1ccccc1Nc1cccc(C(F)(F)F)c1 registered its inhibition (INH) at 10%

The compound identified as COc1cc(/C=C/C(=O)CC(=O)/C=C/c2ccc(OC(=O)c3ccccc3OC(=O)c3ccccc3O)c(OC)c2)ccc1OC(=O)c1ccccc1OC(=O)c1ccccc1O registered its inhibition (INH) at 93.3%

The compound identified as COc1ccc2cc(C(C)C(=O)Oc3ccc(/C=C/C(=O)CC(=O)/C=C/c4ccc(O)c(OC)c4)cc3OC)ccc2c1 (single isomer, unassigned) registered its inhibition (INH) at 87.8%

The compound identified as COc1cc(/C=C/C(=O)CC(=O)/C=C/c2ccc(OC(=O)Cc3ccccc3Nc3c(Cl)cccc3Cl)c(OC)c2)ccc1O registered its inhibition (INH) at 10%

The compound identified as COc1cc(/C=C/C(=O)CC(=O)/C=C/c2ccc(OC(=O)c3ccccc3OC(=O)c3ccccc3O)c(OC)c2)ccc1O registered its inhibition (INH) at 10%

The compound identified as COc1cc(/C=C/C(=O)CC(=O)/C=C/c2ccc(OC(=O)c3ccccc3Nc3cccc(Cl)c3C)c(OC)c2)ccc1O registered its inhibition (INH) at 85%

The compound identified as COc1cc(/C=C/C(=O)CC(=O)/C=C/c2ccc(OC(=O)c3ccccc3O)c(OC)c2)ccc1OC(=O)c1ccccc1O registered its inhibition (INH) at 38.5%

The compound identified as CCc1cccc2c3c([nH]c12)C(CC)(CC(=O)Oc1ccc(/C=C/C(=O)CC(=O)/C=C/c2ccc(O)c(OC)c2)cc1OC)OCC3 (centres undefined) registered its inhibition (INH) at 10%

The compound identified as COc1cc(/C=C/C(=O)CC(=O)/C=C/c2ccc(OC(=O)c3ccccc3Nc3cccc(Cl)c3C)c(OC)c2)ccc1OC(=O)c1ccccc1Nc1cccc(Cl)c1C registered its inhibition (INH) at 10%

The compound identified as COc1ccc2cc([C@@H](C)C(=O)Oc3ccc(/C=C/C(=O)CC(=O)/C=C/c4ccc(OC(=O)[C@H](C)c5ccc6cc(OC)ccc6c5)c(OC)c4)cc3OC)ccc2c1 registered its inhibition (INH) at 10%
